# key: entry, value: log10 of IC50
# System: P. falciparum 3D7
# assay.overview: in vitro asexual P. falciparum imaging assay, 3D7 strain
# Format: cell-based
# applied.conditions: Plasmodium falciparum, 3D7, 72 h; read-out: 3D7 IC50
Form field - Quantity: IC50; Unit: µM; Scale: log10

// solved cases for log10 of IC50 follow
compound	log10 of IC50
Cn1cc(NC(=O)c2cc(NC(=O)c3ccc(NC(=O)c4ccc(F)cc4)cc3)cn2C)cc1C(=O)NCCC(=N)N.O=C(O)C(F)(F)F	-0.74
CN(C)CCNC(=O)c1cc(NC(=O)c2cc(NC(=O)c3ccc(/C=C/c4cnc5ccccc5c4)cc3)cn2C)cn1C.O=C(O)C(F)(F)F	-1.48
Cn1cc(NC(=O)c2cc(NC(=O)c3ccc(/C=C/C(=O)Nc4ccccc4O)cc3)cn2C)cc1C(=O)NCCC(=N)N.O=C(O)C(F)(F)F	-0.20

Lookup: log10 of IC50 / P. falciparum 3D7 / Cn1cc(NC(=O)c2cc(NC(=O)c3ccc(NC(=O)c4cccc(F)c4)cc3)cn2C)cc1C(=O)NCCC(=N)N.O=C(O)C(F)(F)F -0.07

What log10 of IC50 appears in the records for this compound with P. falciparum 3D7? CC(C)CCc1sc(NC(=O)c2cc(NC(=O)c3ccc(/C=C/c4ccc(C(F)(F)F)cc4)cc3)cn2C)nc1C(=O)NCCCN(C)C.O=C(O)C(F)(F)F -1.14

Form: Entry = COc1ccc2nc3cc(Cl)ccc3c(Nc3cc(CN4CCCC4)c(O)c(CN4CCCC4)c3)c2n1 [Pyronaridine, pyronaridine, reference compound] | System = P. falciparum 3D7 | log10 of IC50 = ____ -1.57
